test system: Human immunodeficiency virus 1; experiment: Compound was evaluated for potency against HIV single mutant I84V strain; assay type: functional
Readout: IC90 (nM)
Give the number; nM is assumed, so skip it.

Field: example entries. Status: answers known.
Q: Look at this compound and give its reported IC90. `CCCCCC[C@@H]1[C@H](O)[C@@H](O)[C@@H](Cc2ccccc2)N(Cc2cccc(C(=O)Nc3nc4ccccc4[nH]3)c2)C(=O)N1Cc1cccc(C(=O)Nc2nc3ccccc3[nH]2)c1`
Ans: 24

Q: What about this compound? `CC(C)C[C@@H]1[C@H](O)[C@@H](O)[C@@H](CC(C)C)N(Cc2cccc(C(=O)Nc3nc4ccccc4[nH]3)c2)C(=O)N1Cc1cccc(C(=O)Nc2nc3ccccc3[nH]2)c1`
Ans: 20

Q: What about this compound? `CN(C)c1ccc(C[C@@H]2[C@H](O)[C@@H](O)[C@@H](Cc3ccc(N(C)C)cc3)N(Cc3cccc(C(=O)Nc4nc5ccccc5[nH]4)c3)C(=O)N2Cc2cccc(C(=O)Nc3nc4ccccc4[nH]3)c2)cc1`
Ans: 8

Others:
Q: Look at this compound and give its reported IC90. `CC(C)C[C@@H]1[C@H](O)[C@@H](O)[C@@H](Cc2ccccc2)N(Cc2cccc(C(=O)Nc3nc4ccccc4[nH]3)c2)C(=O)N1Cc1cccc(C(=O)Nc2nc3ccccc3[nH]2)c1`
Ans: 9

Q: What about this compound? `O=C(Nc1nc2ccccc2[nH]1)c1cccc(CN2C(=O)N(Cc3cccc(C(=O)Nc4nc5ccccc5[nH]4)c3)[C@H](Cc3ccccc3)[C@H](O)[C@@H](O)[C@H]2Cc2ccccc2)c1`
Ans: 5

Q: What about this compound? `Nc1ccc(C[C@@H]2[C@H](O)[C@@H](O)[C@@H](Cc3ccc(N)cc3)N(Cc3cccc(C(=O)Nc4nc5ccccc5[nH]4)c3)C(=O)N2Cc2cccc(C(=O)Nc3nc4ccccc4[nH]3)c2)cc1`
Ans: 23
